Consider the following binders and their measured pKd readings.
Target: T1, truncated cTfR1 of SEQ ID NO:123 (cynomolgus monkey, UniProt Q5RDH6 122-760 (Pongo abelii entry))
T1 construct: also called cynomolgus TfR1
T1 chain: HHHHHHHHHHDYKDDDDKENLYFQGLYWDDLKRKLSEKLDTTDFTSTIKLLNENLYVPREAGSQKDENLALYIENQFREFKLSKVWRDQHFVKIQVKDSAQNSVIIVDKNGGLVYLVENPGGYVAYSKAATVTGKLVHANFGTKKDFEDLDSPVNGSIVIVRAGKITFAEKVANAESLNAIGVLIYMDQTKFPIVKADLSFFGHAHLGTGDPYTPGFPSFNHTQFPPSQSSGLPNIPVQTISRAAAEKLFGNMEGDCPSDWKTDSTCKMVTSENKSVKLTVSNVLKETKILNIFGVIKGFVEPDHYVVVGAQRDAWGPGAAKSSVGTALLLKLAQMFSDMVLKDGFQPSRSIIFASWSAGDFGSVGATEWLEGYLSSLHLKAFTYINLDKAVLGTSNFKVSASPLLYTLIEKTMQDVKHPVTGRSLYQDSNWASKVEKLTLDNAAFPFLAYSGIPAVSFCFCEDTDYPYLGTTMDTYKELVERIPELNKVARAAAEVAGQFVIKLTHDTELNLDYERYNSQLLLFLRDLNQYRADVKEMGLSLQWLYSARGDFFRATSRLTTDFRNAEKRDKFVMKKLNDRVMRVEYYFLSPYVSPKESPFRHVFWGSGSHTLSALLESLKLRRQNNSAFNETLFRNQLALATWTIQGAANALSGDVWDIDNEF
Assay: SPR, TfR1 amine-coupled, Fab injected, 1:1 fit
Quick note: pKd values are minus log10 of concentrations in mol/L.

>>> readout_number("h26D3 variant HC8 Fab (Fab, V domains shown, Single-mutant His-tagged Fab; also called Y60A) VH: EVQLVQSGAEVKKPGSSVKVSCKASGYIFTDYNMDWVRQAPGQGLEWIGDINPDYDTTSANEKFKGRATLTVDKSTSTAYMELSSLRSEDTAVYYCARGGYSGSSYYHPMDYWGQGTLVTVSS VL: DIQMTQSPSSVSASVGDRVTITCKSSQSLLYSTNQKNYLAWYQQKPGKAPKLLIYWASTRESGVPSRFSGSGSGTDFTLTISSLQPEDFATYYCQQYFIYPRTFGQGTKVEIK")
7.72
>>> readout_number("h26D3 variant LC1 Fab (Fab, V domains shown, Single-mutant His-tagged Fab; also called Y31A) VH: EVQLVQSGAEVKKPGSSVKVSCKASGYIFTDYNMDWVRQAPGQGLEWIGDINPDYDTTSYNEKFKGRATLTVDKSTSTAYMELSSLRSEDTAVYYCARGGYSGSSYYHPMDYWGQGTLVTVSS VL: DIQMTQSPSSVSASVGDRVTITCKSSQSLLASTNQKNYLAWYQQKPGKAPKLLIYWASTRESGVPSRFSGSGSGTDFTLTISSLQPEDFATYYCQQYFIYPRTFGQGTKVEIK")
7.15
>>> readout_number("h26D3 variant HC5 Fab (Fab, V domains shown, Single-mutant His-tagged Fab; also called D54A) VH: EVQLVQSGAEVKKPGSSVKVSCKASGYIFTDYNMDWVRQAPGQGLEWIGDINPAYDTTSYNEKFKGRATLTVDKSTSTAYMELSSLRSEDTAVYYCARGGYSGSSYYHPMDYWGQGTLVTVSS VL: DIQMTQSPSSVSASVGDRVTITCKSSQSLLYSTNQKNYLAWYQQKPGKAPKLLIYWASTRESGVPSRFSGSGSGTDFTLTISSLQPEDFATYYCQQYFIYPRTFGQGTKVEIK")
7.41
>>> readout_number("h26D3 variant HC3 Fab (Fab, V domains shown, Single-mutant His-tagged Fab; also called D35A) VH: EVQLVQSGAEVKKPGSSVKVSCKASGYIFTDYNMAWVRQAPGQGLEWIGDINPDYDTTSYNEKFKGRATLTVDKSTSTAYMELSSLRSEDTAVYYCARGGYSGSSYYHPMDYWGQGTLVTVSS VL: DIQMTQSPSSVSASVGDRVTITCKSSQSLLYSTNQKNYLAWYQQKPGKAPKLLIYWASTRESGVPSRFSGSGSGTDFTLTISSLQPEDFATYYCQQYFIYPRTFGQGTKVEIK")
6.77

IN: Endpoint output: pKd of h26D3 variant HC6 Fab (Fab, V domains shown, Single-mutant His-tagged Fab; also called Y55A) VH: EVQLVQSGAEVKKPGSSVKVSCKASGYIFTDYNMDWVRQAPGQGLEWIGDINPDADTTSYNEKFKGRATLTVDKSTSTAYMELSSLRSEDTAVYYCARGGYSGSSYYHPMDYWGQGTLVTVSS VL: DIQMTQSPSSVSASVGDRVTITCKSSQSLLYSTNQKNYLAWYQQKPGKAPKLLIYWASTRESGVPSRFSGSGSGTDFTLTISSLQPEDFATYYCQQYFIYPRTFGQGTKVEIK . Value?
OUT: 6.79

Hey, just so you know, these numbers are from patent US20250388664A1.
